# EXPERIMENT_DESCRIPTION: qHTS of pediatric cancer cell lines to identify multiple opportunities for drug repurposing: Primary screen for RD cells (AID 1347104);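 also: plate controls were DMSO for no effect and bortezomib for full effect; nearly all actives have a fitted effect of over 55% in size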
# TEST_CONTEXT: RD rhabdomyosarcoma viability, CellTiter-Glo luminescence, 48 h; series mostly up to 46 µM
Results filed as inconclusive are left out. Calls of active or inactive are those of the source. Calls follow the shape of the dose curve; as a rule, active = well fitted cell-killing curve with a large enough effect; inconclusive = small, poorly fitted or top-dose-only effect; inactive = flat fitted curve, though single readings scatter.
PARAMETER: activity change, negative = cytotoxic

>>> df
                                   compound                              parameter                          result
0  NC(Cc1ccc(Cl)cc1)C(=O)O (centres undefined)  activity change, negative = cytotoxic  7.62% [at 0.597 µM] (inactive)
1  CN1CCN(CC(=O)N2c3ccccc3C(=O)Nc3cccnc32)CC1  activity change, negative = cytotoxic   6.71% [at 4.84 µM] (inactive)
2  O=C(O)CN(CCOCCOCCN(CC(=O)O)CC(=O)O)CC(=O)O  activity change, negative = cytotoxic  10.3% [at 0.597 µM] (inactive)
3                         NCCCNCCSP(=O)(O)O  activity change, negative = cytotoxic   5.99% [at 9.22 µM] (inactive)
